Parameter: melting point

Example entries begin here.
**Query** So what does the record say about melting point for Cc1cc(F)c2[nH]cc(-c3ncc(F)c(N[C@@H]4CCC[C@@H](NC(=O)c5ncoc5C)C4)n3)c2c1 (racemic) [Compound 194] ?
**Result** 140 °C

**Query** Same for COc1ccnc(C(=O)N[C@@H]2CCC[C@H](Nc3nc(-c4c[nH]c5c(F)cc(F)cc45)ncc3F)C2)c1 [Compound 105]
**Result** 233.8 °C

**Query** Same for O=C(O)c1cccnc1C(=O)N[C@@H]1CCC[C@H](Nc2nc(-c3c[nH]c4c(F)cc(F)cc34)ncc2F)C1 [Compound 225]
**Result** 265.2 °C

More entries:
**Query** So what does the record say about melting point for Nc1n[nH]cc1C(=O)N[C@@H]1CCC[C@H](Nc2nc(-c3c[nH]c4c(F)cc(F)cc34)ncc2F)C1 [Compound 146] ?
**Result** 169.7 °C

**Query** Same for O=C(N[C@@H]1CCC[C@H](Nc2nc(-c3c[nH]c4c(F)cc(Cl)cc34)ncc2F)C1)c1cncnc1 [Compound 53]
**Result** > 300 °C

**Query** Same for COc1cccc(C(=O)N[C@@H]2CCC[C@H](Nc3nc(-c4c[nH]c5c(F)cc(Cl)cc45)ncc3F)C2)n1 [Compound 31]
**Result** 256.7 °C

**Query** Same for O=C(N[C@@H]1CCC[C@H](Nc2nc(-c3c[nH]c4c(F)cc(Cl)cc34)ncc2F)C1)c1ncc(F)cc1F [Compound 55]
**Result** > 300 °C

**Query** Same for Cc1cc(F)c2[nH]cc(-c3ncc(F)c(N[C@H]4C5CCC(CC5)[C@@H]4C(=O)O)n3)c2c1 [Compound 166]
**Result** 98 °C

**Query** Same for Cc1nc(C(=O)N[C@@H]2CCC[C@H](Nc3nc(-c4c[nH]c5c(F)cc(Cl)cc45)ncc3F)C2)no1 [Compound 50]
**Result** 276.7 °C

**Query** Same for Cc1cnc(C(=O)N[C@@H]2CCC[C@H](Nc3nc(-c4c[nH]c5c(F)cc(F)cc45)ncc3F)C2)cn1 [Compound 103]
**Result** 215 °C

**Query** Same for Cc1cc(F)c2[nH]cc(-c3ncc(F)c(N[C@@H]4CCC[C@@H](NC(=O)c5cncn5C)C4)n3)c2c1 (racemic) [Compound 198]
**Result** 98 °C

Data credit: patent US10597390B2
